# TARGET DESC: Prostaglandin G/H synthase 1 (Homo sapiens, UniProt P23219)
# Sequence (P23219 whole entry): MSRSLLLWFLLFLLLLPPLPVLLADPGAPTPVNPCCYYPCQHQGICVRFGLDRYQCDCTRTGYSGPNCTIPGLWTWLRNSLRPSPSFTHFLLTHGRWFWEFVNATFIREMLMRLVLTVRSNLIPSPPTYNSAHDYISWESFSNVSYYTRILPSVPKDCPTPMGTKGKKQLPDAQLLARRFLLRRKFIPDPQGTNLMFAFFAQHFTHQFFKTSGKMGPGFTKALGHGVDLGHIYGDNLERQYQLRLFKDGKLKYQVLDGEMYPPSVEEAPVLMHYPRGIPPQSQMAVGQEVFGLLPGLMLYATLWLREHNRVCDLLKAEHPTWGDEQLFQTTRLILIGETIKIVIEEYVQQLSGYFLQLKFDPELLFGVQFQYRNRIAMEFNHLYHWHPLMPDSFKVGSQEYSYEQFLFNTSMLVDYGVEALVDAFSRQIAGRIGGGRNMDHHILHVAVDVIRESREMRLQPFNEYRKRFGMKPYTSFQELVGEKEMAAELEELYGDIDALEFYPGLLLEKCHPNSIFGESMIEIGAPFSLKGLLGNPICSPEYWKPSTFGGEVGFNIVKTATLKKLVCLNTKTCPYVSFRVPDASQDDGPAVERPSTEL
REPORTED ENDPOINT: IC50

IN: Look at this compound and give its reported IC50. CC(C)(O)c1ccc(N2Cc3c(ccnc3-c3ccc(F)cc3OCC(F)(F)F)C2=O)cc1
OUT: > 10 µM

###

# TARGET DESC: Vascular endothelial growth factor receptor 2 (Homo sapiens, UniProt P35968)
# Sequence (P35968 whole entry): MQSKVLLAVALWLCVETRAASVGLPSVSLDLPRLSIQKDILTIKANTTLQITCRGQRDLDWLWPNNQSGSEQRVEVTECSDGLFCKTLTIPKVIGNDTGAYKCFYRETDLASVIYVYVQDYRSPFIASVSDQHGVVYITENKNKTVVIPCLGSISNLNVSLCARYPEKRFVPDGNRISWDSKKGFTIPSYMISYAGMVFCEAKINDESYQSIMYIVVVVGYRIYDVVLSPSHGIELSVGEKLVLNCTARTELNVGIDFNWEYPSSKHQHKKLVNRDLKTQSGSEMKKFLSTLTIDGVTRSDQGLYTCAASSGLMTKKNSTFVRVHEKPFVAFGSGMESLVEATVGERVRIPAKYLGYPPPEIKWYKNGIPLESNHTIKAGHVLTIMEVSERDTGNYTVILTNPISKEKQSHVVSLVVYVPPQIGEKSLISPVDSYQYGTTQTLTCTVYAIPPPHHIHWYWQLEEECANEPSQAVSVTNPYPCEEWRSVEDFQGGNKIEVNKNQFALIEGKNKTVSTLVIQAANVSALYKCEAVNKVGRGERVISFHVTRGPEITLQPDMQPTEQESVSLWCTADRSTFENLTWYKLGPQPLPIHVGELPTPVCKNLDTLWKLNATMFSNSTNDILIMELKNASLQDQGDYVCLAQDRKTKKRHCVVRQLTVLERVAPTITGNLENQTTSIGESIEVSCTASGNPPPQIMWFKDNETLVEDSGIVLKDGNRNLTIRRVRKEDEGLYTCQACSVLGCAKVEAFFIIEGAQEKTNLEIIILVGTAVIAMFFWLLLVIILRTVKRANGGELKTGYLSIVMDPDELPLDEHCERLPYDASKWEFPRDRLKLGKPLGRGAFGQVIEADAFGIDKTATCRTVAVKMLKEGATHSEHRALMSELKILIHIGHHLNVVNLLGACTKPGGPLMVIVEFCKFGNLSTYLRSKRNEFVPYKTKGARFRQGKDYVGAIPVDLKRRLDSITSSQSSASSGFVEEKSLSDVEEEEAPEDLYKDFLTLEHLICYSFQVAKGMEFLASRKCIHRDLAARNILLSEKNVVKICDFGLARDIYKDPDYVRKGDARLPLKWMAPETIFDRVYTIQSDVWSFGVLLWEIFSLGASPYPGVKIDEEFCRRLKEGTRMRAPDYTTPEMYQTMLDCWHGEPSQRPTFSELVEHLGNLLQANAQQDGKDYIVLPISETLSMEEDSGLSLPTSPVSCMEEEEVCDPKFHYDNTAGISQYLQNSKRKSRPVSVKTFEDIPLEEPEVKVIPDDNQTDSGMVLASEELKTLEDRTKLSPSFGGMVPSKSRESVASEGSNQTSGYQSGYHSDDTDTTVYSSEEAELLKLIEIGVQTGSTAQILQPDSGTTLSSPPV
pIC50: −log10 of the molar value.
REPORTED ENDPOINT: pIC50

IN: Recall the recorded pIC50 for CC(C)(O)c1ccc(N2Cc3c(ccnc3-c3ccc(F)cc3OCC(F)(F)F)C2=O)cc1 with Vascular endothelial growth factor receptor 2 (Homo sapiens, UniProt P35968) and state it.
OUT: < 5.00
